read-out: Pyruvate Dehydrogenase Kinase 4 (PDK4), PDK4 (gene 5166); experiment: LTEA_HepaRG_PDK4: Life Technologies and Expression Analysis (LTEA) Assay for Pyruvate Dehydrogenase Kinase 4 (PDK4) using HepaRG (AID 2283525); conditions: mRNA level, 48 h; actives raise or lower the signal
Active and inactive are the calls of the source. How the source made its calls: active means hit-call score of the fitted dose curve at least 0.9, where 1 is the maximum; inactive means score below 0.9.
Your response should consist of one outcome taken from active, inactive

Recorded test outcome, item CCOP(=S)(OCC)SCSP(=S)(OCC)OCC
active

Recorded test outcome, item CCCCCCCCc1ccc(O)cc1
active

Recorded test outcome, item CC12CC1(C)C(=O)N(c1cc(Cl)cc(Cl)c1)C2=O (stereo unspecified)
active

Recorded test outcome, item O=C1C2(Cl)C3(Cl)C4(Cl)C(Cl)(Cl)C5(Cl)C3(Cl)C1(Cl)C5(Cl)C24Cl (stereo unspecified)
active

Recorded test outcome, item CC(C)(c1ccccc1)c1ccc(O)c(C(C)(C)c2ccccc2)c1
inactive

Recorded test outcome, item CC(C)(C)CC(C)(C)c1ccc(O)cc1
inactive

Recorded test outcome, item CCC(=O)C(CC(C)N(C)C)(c1ccccc1)c1ccccc1 (stereo unspecified)
inactive

Recorded test outcome, item COc1cc(-c2ccc(N)c(OC)c2)ccc1N
inactive

Data origin, for the record: PubChem BioAssay (EPA / NIEHS)
